Cited source: patent US20230105212A1

Target: human PD-1/PD-L1 binding (Homo sapiens)
Construct: PD-L1-His protein (19 to 238 amino acids) (Abcam #ab167713); purchased Abcam (PD-L1-His); R&D (PD-1-Fc) ab167713; 1086-PD
Sequence (Q9NZQ7 19-238): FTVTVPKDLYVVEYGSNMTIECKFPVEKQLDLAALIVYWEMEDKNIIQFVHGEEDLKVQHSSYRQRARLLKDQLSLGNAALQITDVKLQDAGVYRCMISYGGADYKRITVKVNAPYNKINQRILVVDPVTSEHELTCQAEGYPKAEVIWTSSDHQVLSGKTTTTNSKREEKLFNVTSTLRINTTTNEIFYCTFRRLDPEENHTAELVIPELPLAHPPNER
Assay: Inhibition of human PD-1/PD-L1 binding (TR-FRET/HTRF)
Conditions: TR-FRET, PD-L1-His and PD-1-Fc; read-out: PD-1/PD-L1 binding IC50
Task for the reader: assign each of the following compounds its reported pIC50.
Give bare numbers, as −log10 of the molar value.

Example entries and their recorded answers appear below.
compound: COc1nc(-c2cccc(-c3cccc(NC(=O)c4nc5c(n4C)CCN(C)C5)c3Cl)c2Cl)ccc1CN1CC2(C1)CN(C(C)=O)C2
tested.target: human PD-1/PD-L1 binding (Homo sapiens)
pIC50: 8.80

compound: COc1cc(C(=O)Nc2cccc(-c3cccc(NC(=O)c4nc5c(n4C)CCN(C)C5)c3Cl)c2C)ncc1CN[C@@H]1CCOC[C@@H]1F
tested.target: human PD-1/PD-L1 binding (Homo sapiens)
pIC50: 8.24

compound: COc1nc(-c2cccc(-c3cccc(NC(=O)c4nc5c(n4C)CCN(C)C5)c3Cl)c2Cl)ccc1CNCC(=O)O
tested.target: human PD-1/PD-L1 binding (Homo sapiens)
pIC50: 9.10

compound: COc1cc(CN[C@@H]2CCOC[C@@H]2F)cnc1C(=O)Nc1cccc(-c2cccc(NC(=O)c3nc4c(n3C)CCN(C)C4)c2Cl)c1C
tested.target: human PD-1/PD-L1 binding (Homo sapiens)
pIC50: 8.33

compound: COc1nc(-c2cccc(-c3cccc(NC(=O)c4nc5c(n4C)CCN(C)C5)c3Cl)c2Cl)ncc1CN[C@H]1CCOC[C@@H]1O (relative stereo)
tested.target: human PD-1/PD-L1 binding (Homo sapiens)
pIC50: 8.38

Next up:
With human PD-1/PD-L1 binding (Homo sapiens) as the test system, COc1nc(-c2cccc(-c3cccc(NC(=O)c4nc5c(n4C)CCN(C)C5)c3Cl)c2Cl)ncc1CN1CC2(C1)CN(C(C)=O)C2 showed pIC50 of 8.28
